- System: RARb homodimer (NR concentration 270 nM)
- assay_text: PBM binding z-score (relative to random genomic background probes); higher = stronger binding; sequences stand for … in GC…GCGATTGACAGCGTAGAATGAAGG
measured_metric: PBM binding z-score
Please reply with the number alone, leaving off any unit.

Consider the following illustrative entries.
The measured PBM binding z-score associated with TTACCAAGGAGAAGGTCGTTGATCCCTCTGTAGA reads 0.592

Briefly, PBM binding z-score measured for GCTTGTAGATCAAGGTTAGGAAAGACTAAGCTAA : -0.185

Kindly note the recorded PBM binding z-score for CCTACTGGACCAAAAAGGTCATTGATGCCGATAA , which is 4.26

Next:
Value of measured PBM binding z-score for the entry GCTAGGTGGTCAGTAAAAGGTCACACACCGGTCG : 5.21

PBM binding z-score reported for this sequence GCTAGTTGGTCAGTACAAGGTCACACACCGGTCG : 4.39

Value of PBM binding z-score reported for the sequence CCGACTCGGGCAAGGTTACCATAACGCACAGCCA is 1.08

PBM binding z-score for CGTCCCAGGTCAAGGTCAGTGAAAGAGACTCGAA is 4.62

Given item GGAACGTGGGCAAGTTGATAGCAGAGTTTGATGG , the value recorded as its PBM binding z-score is -0.282

Record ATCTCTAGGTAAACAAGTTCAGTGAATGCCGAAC , field PBM binding z-score: 1.51

// sample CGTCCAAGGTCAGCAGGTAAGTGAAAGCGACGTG , its PBM binding z-score was 3.74

The recorded PBM binding z-score for entry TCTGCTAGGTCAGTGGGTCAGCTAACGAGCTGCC equals 3.84

Lab book: PBM binding z-score of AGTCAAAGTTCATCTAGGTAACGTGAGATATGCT noted as 3.97

Lab book: PBM binding z-score of CCTGCTAGGTGAATGGTCAGCTAAAGCAGCTCGC noted as 0.445

Recorded result, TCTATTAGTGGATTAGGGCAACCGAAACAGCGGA , PBM binding z-score: 0.492

PBM binding z-score recorded for this sequence, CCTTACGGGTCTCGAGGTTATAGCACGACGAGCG , is 0.421

Short answer for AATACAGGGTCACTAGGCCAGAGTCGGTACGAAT : PBM binding z-score was 3.25

# sequence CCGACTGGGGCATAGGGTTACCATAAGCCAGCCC ; its PBM binding z-score = 0.968

Reported PBM binding z-score of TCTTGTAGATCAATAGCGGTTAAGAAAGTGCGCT : -0.0533

Data point: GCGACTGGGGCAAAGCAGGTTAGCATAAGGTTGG ; PBM binding z-score = 0.654

So, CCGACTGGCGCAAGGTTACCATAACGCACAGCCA ? Its PBM binding z-score was 0.818
